Reference for the values: patent US20200283478A1

Each entry below lists one item and its recorded ELISA value.
tested-target: T1, PCSK9Δhelix (human, Chemically biotinylated in the phage ELISAs; the site is not given.)
T1 construct: construct M1-Q692 with engineered TEV site, cleaved by TEV; also called His-PCSK9Δhelix; open groove PCSK9Δhelix
T1 sequence (prodomain, as listed by the source mutant limits assumed, chain 1 of 2): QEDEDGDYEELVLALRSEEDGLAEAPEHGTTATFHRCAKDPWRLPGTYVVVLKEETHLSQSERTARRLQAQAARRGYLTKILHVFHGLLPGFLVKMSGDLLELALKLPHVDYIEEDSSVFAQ
T1 sequence (chain, as listed by the source mutant limits assumed, chain 2 of 2): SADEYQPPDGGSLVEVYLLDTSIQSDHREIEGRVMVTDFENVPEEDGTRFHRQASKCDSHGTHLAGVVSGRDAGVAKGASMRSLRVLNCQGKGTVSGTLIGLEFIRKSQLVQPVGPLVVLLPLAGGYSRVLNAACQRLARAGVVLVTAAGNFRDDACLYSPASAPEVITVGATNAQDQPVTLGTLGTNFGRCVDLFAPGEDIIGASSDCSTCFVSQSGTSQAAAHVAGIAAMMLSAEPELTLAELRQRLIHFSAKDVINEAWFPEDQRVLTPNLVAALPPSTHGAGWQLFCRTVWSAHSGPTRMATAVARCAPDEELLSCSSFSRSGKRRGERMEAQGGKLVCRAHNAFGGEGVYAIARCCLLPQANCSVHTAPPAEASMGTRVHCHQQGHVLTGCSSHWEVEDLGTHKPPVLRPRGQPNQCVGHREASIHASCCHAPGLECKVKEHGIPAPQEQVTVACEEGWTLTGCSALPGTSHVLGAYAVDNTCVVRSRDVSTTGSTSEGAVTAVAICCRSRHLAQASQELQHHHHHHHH
assay-method-text: phage spot ELISA

Worked cases, answers included:
- TAFTSWEEYLDWVGSGQVTSLPQA [SEQ ID NO 363]: 0.11
- TAFTSWEEYLDWVGSGNCARLYSHQRDYSQVC [SEQ ID NO 352]: 2.64
- TAFTSWEEYLDWVGSGGREMRSVIQM [SEQ ID NO 344]: 2.74

Give its ELISA value. Item: TAFTSWEEYLDWVGSGTRYADRGVMVYSLS [SEQ ID NO 321]
3.03
